Just for reference, PubChem BioAssay is where these values come from.

Overview of recorded composite z-score for various compounds
test system: Neuregulin-1 EGF-like domain; test: binders of neuregulin-1 EGF-like domain, primary screen, biochemical, small-molecule microarray, 635 nm fluorescence (AID 1081); settings: small-molecule microarray binding, higher = more signal;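 note: binding of the protein to compounds printed on small-molecule microarray slides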
experimental.readout: composite z-score

compound=C=C(CCCC)/C(=C/C[C@@H](OC(C)=O)c1ccc(OCCO)cc1)c1cnc2ccccc2c1 readout_number=1.01
compound="C[C@H]1C2[C@H](Cc3ccccc3)NC(=O)[C@]23C(=O)N[C@H](Cc2ccccc2)C(=O)N2CCC[C@H]2C(=O)NC/C=C\\C/C=C/C3[C@@H]2O[C@]12C (stereo not given in full)" readout_number=-0.473
compound=COc1cc2c(cc1OC)CN(C(=O)[C@@H]1[C@H]3C(=O)O[C@H](c4ccccc4)[C@H](c4ccccc4)N3[C@H](c3ccccc3OCCO)[C@@]13C(=O)Nc1ccc(C#CCCO)cc13)CC2 readout_number=1.23
compound=C=C[C@H](CO)NS(=O)(=O)c1ccc(Br)cc1 readout_number=0.827
compound=C[C@@]1([C@@H](NC(=O)c2ccc(-c3ccccc3)cc2)c2ccc(Cl)cc2)C[C@H]1C1CCCCC1 readout_number=0.883
compound=C=CCN1C(=O)[C@]2(O[C@H](CCn3cc([C@H](O)c4ccccc4)nn3)[C@@H]([Si](C)(C)c3ccc(OC)cc3)[C@@H]2C)c2cc(N3CCC3=O)ccc21 readout_number=1.14
compound=O=C(c1ccccc1)N1C(=O)[C@@]2(Cc3ccccc31)N=C(c1ccc(OCCCO)cc1)O[C@H]2c1ccccc1 readout_number=1.39
compound="NC(=O)N1C(=O)C2C(C1=O)C1C=C(c3ccc(CO)cc3)C2C(c2cccs2)N1Cc1cccc(OC(F)(F)F)c1 (stereo not given)" readout_number=0.106
compound="COc1cc(Br)cc(C(O)C2C=CC3C(=O)N(C)C(=O)C3N2N2CCCCC2)c1OC (stereo not given)" readout_number=1.31
compound=O=C1N(Cc2ccccc2)c2ccccc2[C@@H]2OC(c3ccc(OCCCO)cc3)=N[C@]12CCS(=O)(=O)c1ccccc1 readout_number=1.28
compound=CC(C)NC(=O)[C@@H]1c2ccccc2C(=O)N(C2Cc3ccccc3C2)[C@H]1c1ccc(CO)cc1 readout_number=0.998
compound=COC(=O)[C@@]1(Cc2ccc(OC)cc2)[C@H]2c3cc(C(=O)N(C)C)n(Cc4ccccn4)c3C[C@H]2CN1C(=O)c1ccccc1 readout_number=0.89
compound="CCCCN1CC=CC23O[C@@H]4C=CCCOC(=O)C4[C@H]2C(=O)N(CCCCCCO)[C@@H]3C1=O (stereo not given in full)" readout_number=1.41
compound=COc1ccc(C(=O)Nc2ccc(CN3C(=O)[C@]4(O[C@H](CCO)[C@@H]([Si](C)(C)c5ccc(OC)cc5)[C@@H]4C)c4ccccc43)cc2)cc1 readout_number=0.836
compound=COc1cc(COC(C)=O)ccc1OC(C)=O readout_number=-0.464

###

assay: COS7 lysate on small-molecule microarray, probe aHis, 635 nm (AID 1123); conditions: COS7 cell lysate, fluorescence, higher = more signal;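 note: z-score combines 667nm fluorescence intensity with signal-to-noise per printed compound spot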
experimental.readout: composite z-score

smiles_record=CCOC(=O)C[C@H]1[C@H](OC(=O)c2ccc(C(=O)c3ccccc3)cc2)[C@@H](NC(=O)CC(C)C)c2cc(OCCCO)ccc2N1C(=O)c1ccc2ccccc2n1 readout_number=1.21
smiles_record=COc1cc2c(cc1OC)CN(C(=O)[C@H]1[C@@H]3C(=O)O[C@@H](c4ccccc4)[C@@H](c4ccccc4)N3[C@@H](c3ccc(O)cc3)[C@]13C(=O)Nc1ccccc13)CC2 readout_number=2.34
smiles_record=C=C(CCCC)/C(=C/C[C@H](OC(C)=O)c1ccccc1OCCO)c1cc(C(=O)OC)ccc1OC readout_number=0.0095
smiles_record=O=C1c2ccccc2[C@](Cc2ccccc2I)(C(=O)NCCN2CCOCC2)[C@H](c2ccc(CO)cc2)N1C1CCCCC1 readout_number=1.41

###

assay: small-molecule microarray binders of probe aCHRDL2, primary screen, biochemical, biotinylated probe, 635/667 nm fluorescence (AID 1100); conditions: higher = more signal
Overview of recorded composite z-score for various compounds
experimental.readout: composite z-score

compound="COc1cc(NN2C(C(O)c3ccco3)C=CC3C(=O)N(c4ccccc4)C(=O)C32)cc(OC)c1OC (stereo not given)" readout_number=0.485
compound=[N-]=[N+]=NCc1ccccc1[C@@H]1OC(c2ccc(OCCCO)cc2)=N[C@]1(Cc1ccccc1)C(N)=O readout_number=0.864
compound=COC(=O)[C@@]1(Cc2ccccc2)[C@H]2c3cc(C(=O)N(C)C)n(Cc4ccsc4Br)c3C[C@H]2CN1C(=O)c1ccccc1 readout_number=1.17
compound=CC(C)=CCN[C@H](CO)c1ccccc1 readout_number=-0.235
compound=O=C1[C@@]23C=C(Br)[C@H](C[C@@H]2CCOC3)[C@@]12CO2 readout_number=-0.478
compound=COC(=O)[C@@]1(Cc2ccc(F)cc2)[C@H]2c3cc(C(=O)N4CCCC4)n(CCCNc4ncc(C(F)(F)F)cc4Cl)c3C[C@H]2CN1C(=O)c1ccccc1 readout_number=1.05
compound=CN(C)C(=O)[C@]1(Cc2ccccc2N=[N+]=[N-])N=C(c2ccc(OCCCO)cc2)O[C@@H]1c1ccccc1N=[N+]=[N-] readout_number=1.01
compound="CC(CO)N1C(=O)[C@@H]2C3C(=O)OCCC/C=C\\[C@H]3OC23C=CCN(C(C)(C)C)C(=O)[C@@H]13 (stereo not given in full)" readout_number=-0.522
compound=COCCCNC(=O)[C@@H]1c2ccccc2C(=O)N(Cc2ccccc2Cl)[C@H]1c1ccc(CO)cc1 readout_number=0.199
compound=Cc1ccc(S[C@]2(C(=O)NCCCN(C)C)CC(=O)N(Cc3cc(C(F)(F)F)cc(C(F)(F)F)c3)[C@@H]2c2ccc(CO)cc2I)cc1 readout_number=0.879
compound=Cc1ccc(N2C(=O)c3ccccc3[C@@H](C(=O)NC3CC3)[C@@H]2c2ccc(CO)cc2)nc1 readout_number=0.908
compound=COCCOC(=O)N1C(=O)[C@@]2(c3ccccc31)[C@H](c1ccccc1OCCO)N1[C@H](c3ccccc3)[C@H](c3ccccc3)OC(=O)[C@H]1[C@@H]2C(=O)N1CCN(c2ncccn2)CC1 readout_number=0.72
compound=COc1ccc(CCNC(=O)[C@@]2(Sc3ccc(C)cc3)CC(=O)N(C(C)C)[C@@H]2c2ccc(CO)cc2I)cc1 readout_number=0.778
compound=COc1ccc(C(=O)Nc2ccc(CN3C(=O)[C@]4(O[C@H](CCO)[C@@H]([Si](C)(C)c5ccc(OC)cc5)[C@@H]4C)c4ccccc43)cc2)cc1 readout_number=0.326
compound="C=C(C)[C@@H]1CC=C(C(O)C2C=CC3C(=O)N(C)C(=O)C3N2Nc2ccccc2)CC1 (stereo not given in full)" readout_number=0.581

###

Overview of recorded composite z-score for various compounds
test: small-molecule microarray binders of probe aLefty2, primary screen, biochemical, biotinylated probe, 635/667 nm fluorescence (AID 1094); settings: higher = more signal;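 note: score merges spot fluorescence near 667 nm with spot signal-to-noise ratio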
experimental.readout: composite z-score

compound="CC(CO)N1C(=O)[C@@H]2C3C(=O)OCCC/C=C\\[C@H]3OC23C=CCN(C(C)(C)C)C(=O)[C@@H]13 (stereo partly drawn)" readout_number=-0.216
compound="C=C(C)[C@@H]1CC=C(C(O)C2C=CC3C(=O)N(c4ccccc4)C(=O)C3N2Nc2ccccc2)CC1 (stereo partly drawn)" readout_number=0.467
compound=COC(=O)[C@@]1(Cc2ccc(OC)cc2)[C@H]2c3cc(C(=O)N(C)C)n(C)c3C[C@H]2CN1C(=O)c1ccccc1 readout_number=0.654
compound="CN1C(=O)C2C=CC(C(O)C3CC=CCC3)N(N(c3ccccc3)c3ccccc3)C2C1=O (stereo not drawn)" readout_number=0.639
compound="C=C(C)[C@@H]1CC=C(C(O)C2C=CC3C(=O)N(C)C(=O)C3N2Nc2ccccc2)CC1 (stereo partly drawn)" readout_number=0.118
compound=COc1ccc(-c2cc3c(c(-c4ccc(Oc5ccccc5)cc4)n2)[Si](C(C)C)(C(C)C)OC3)cn1 readout_number=-0.119
compound=COC(=O)[C@@]1(Cc2ccc(F)cc2)[C@H]2c3cc(C(=O)N4CCCC4)n(CCCNc4ncc(C(F)(F)F)cc4Cl)c3C[C@H]2CN1C(=O)c1ccccc1 readout_number=0.83
compound=Cc1ccc(S[C@]2(C(=O)NCCCN(C)C)CC(=O)N(Cc3cc(C(F)(F)F)cc(C(F)(F)F)c3)[C@@H]2c2ccc(CO)cc2I)cc1 readout_number=0.269
compound=COc1cc2c(cc1OC)CN(C(=O)[C@H]1[C@@H]3C(=O)O[C@@H](c4ccccc4)[C@@H](c4ccccc4)N3[C@@H](c3ccc(O)cc3)[C@]13C(=O)Nc1ccc(C#CCCO)cc13)CC2 readout_number=-0.145
compound=NC(=O)NCC#Cc1ccc2c(c1)[C@]1(C(=O)N2)[C@H](c2ccc(O)cc2)N2[C@H](c3ccccc3)[C@H](c3ccccc3)OC(=O)[C@H]2[C@@H]1C(=O)O readout_number=-0.255
compound="COc1cc2c(cc1O)C(c1cccs1)N(C)CC2 (stereo not drawn)" readout_number=-0.0943
compound=CO[C@H]1O[C@H](CO)[C@@H](OC(=O)Nc2ccc(Oc3ccccc3)cc2)[C@H](OC(=O)Nc2ccc3c(c2)OCO3)[C@H]1OC(=O)Nc1ccc2c(c1)OCO2 readout_number=0.25
compound="O[C@@H](Cc1ccccc1)[C@H]1C2C=CCCC=C2CN1Cc1cccc(Cl)c1 (stereo partly drawn)" readout_number=-0.101
compound=COC(=O)[C@@]1(Cc2ccc(OC)cc2)[C@@H]2C(=CC(=O)[C@H]2CC(=O)C(=O)N2CCCC2)CN1C(=O)c1ccccc1 readout_number=0.336
compound=Cc1ccc(S[C@]2(C(=O)NCCCN(C)C)CC(=O)N(Cc3cc(C(F)(F)F)cc(C(F)(F)F)c3)[C@@H]2c2ccc(CO)cc2)cc1 readout_number=-0.0478
compound=C=C[C@H](CO)NS(=O)(=O)c1ccc(Br)cc1 readout_number=0.0467
compound=COC(=O)[C@@]1(Cc2ccc(OC)cc2)[C@H]2c3cc(C(=O)N4CCCC4)n(Cc4ccc(C)c(F)c4F)c3C[C@H]2CN1C(=O)c1ccccc1 readout_number=0.505
compound=CCOC(=O)[C@H]1C/C=C/C[C@H](C(=O)OCC)C(=O)O[C@H]2[C@@H](OC)O[C@H](CO)[C@@H](OC(=O)c3c(OC)cccc3OC)[C@@H]2OC1=O readout_number=0.573
compound=C=C(COC)/C(=C/C[C@@H](OC(=O)c1ccncc1)c1ccc(CO)o1)c1cc(C(=O)OC)ccc1OC readout_number=-0.178
compound=C#C[C@H](O[Si](C#Cc1ccc(Oc2ccccc2)cc1)(C(C)C)C(C)C)c1ccccc1 readout_number=-0.0666
compound=COc1ccc(C(=O)Nc2ccc(CN3C(=O)[C@]4(O[C@H](CCO)[C@@H]([Si](C)(C)c5ccc(OC)cc5)[C@@H]4C)c4ccccc43)cc2)cc1 readout_number=0.0412
compound=COC(=O)[C@H](Cc1ccccc1)N[C@@H](/C=C/C1CC1)[C@H](O)Cc1ccccc1 readout_number=-0.127
compound=[N-]=[N+]=NCc1ccccc1C[C@]1(C(=O)N2CCCCC2)N=C(c2ccc(OCCCO)cc2)O[C@H]1c1ccccc1N=[N+]=[N-] readout_number=0.202
compound=COc1ccc(C#Cc2ccc3c(c2)[C@]2(C(=O)N3)[C@H](c3ccccc3OCCO)N3[C@H](c4ccccc4)[C@H](c4ccccc4)OC(=O)[C@H]3[C@@H]2C(=O)Nc2nc3ccccc3s2)cc1 readout_number=0
compound="CC1(C)[C@@H]2CC(C(O)C3C=CC4C(=O)N(Cc5ccccc5)C(=O)C4N3n3cnnc3)=C[C@H]1C2 (stereo partly drawn)" readout_number=0.104
compound=O=C1C[C@@](C(=O)NC2CC2)(c2ccc([N+](=O)[O-])cc2)[C@@H](c2ccc(CO)cc2I)N1C1CCCCC1 readout_number=-0.05
compound=O=C1O[C@@H](c2ccccc2)[C@@H](c2ccccc2)N2[C@@H](c3ccccc3OCCO)[C@]3(C(=O)Nc4ccccc43)[C@@H](C(=O)Nc3nc4ccccc4s3)[C@H]12 readout_number=-0.215
compound=COCCOC(=O)N1C(=O)[C@@]2(c3cc(C#CCCO)ccc31)[C@H](C(=O)N1CCCCCCC1)[C@H]1C(=O)O[C@H](c3ccccc3)[C@H](c3ccccc3)N1[C@@H]2c1ccc(OCCO)cc1 readout_number=1.53
